Listing of entries alongside the reported EC50 (concentration required to elicit a 50% maximal aggregation), platelet aggregation.
# TARGET_OR_SYSTEM: T1, human thrombin receptor (human, UniProt P25116 42-425)
# T1 chain: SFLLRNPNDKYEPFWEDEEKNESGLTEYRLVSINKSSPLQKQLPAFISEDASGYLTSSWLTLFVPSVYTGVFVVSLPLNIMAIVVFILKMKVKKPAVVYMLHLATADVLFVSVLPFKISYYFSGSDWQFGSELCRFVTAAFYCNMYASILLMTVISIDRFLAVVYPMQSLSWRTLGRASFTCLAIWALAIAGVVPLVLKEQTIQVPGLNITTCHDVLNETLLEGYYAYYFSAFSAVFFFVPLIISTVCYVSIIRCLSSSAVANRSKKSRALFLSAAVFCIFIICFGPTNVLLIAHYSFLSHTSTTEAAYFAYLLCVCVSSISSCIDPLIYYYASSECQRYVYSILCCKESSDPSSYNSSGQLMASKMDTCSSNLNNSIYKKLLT
# METHOD_DESCRIPTION: cell-based or functional assay
Square brackets hold non-standard residues; d marks the D form. Ends that are not written are not given here. Cha = N[C@@H](CC1CCCCC1)C(=O)O
ASSAY_ENDPOINT: EC50 (concentration required to elicit a 50% maximal aggregation), platelet aggregation

BINDER	OBSERVED
SYLLR-NH2 [SYLLR-NH2]	288 µM
SF[Cha]LRN-NH2 (N-terminus assumed; SMILES CC(C)C[C@H](NC(=O)[C@H](CC1CCCCC1)NC(=O)[C@H](Cc1ccccc1)NC(=O)[C@@H](N)CO)C(=O)N[C@@H](CCCNC(=N)N)C(=O)N[C@@H](CC(N)=O)C(N)=O) [SF(Cha)LRN-NH2]	1.3 µM
SFILR-NH2 [SFILR-NH2]	5.9 µM
SFLRR-NH2 [SFLRR-NH2]	1000 µM
{2‑MeButyryl}-FLLR-NH2 [(2-MeButyryl]-FLLR-NH2]	1500 µM
SFL[Nal]RN-NH2 (not fully specified; printed as SFL(Nal)RN-NH2) [SFL(Nal)RN-NH2]	7.5 µM
